measured target: Bifunctional purine biosynthesis protein ATIC (Homo sapiens, UniProt P31939)
Sequence (P31939 whole entry): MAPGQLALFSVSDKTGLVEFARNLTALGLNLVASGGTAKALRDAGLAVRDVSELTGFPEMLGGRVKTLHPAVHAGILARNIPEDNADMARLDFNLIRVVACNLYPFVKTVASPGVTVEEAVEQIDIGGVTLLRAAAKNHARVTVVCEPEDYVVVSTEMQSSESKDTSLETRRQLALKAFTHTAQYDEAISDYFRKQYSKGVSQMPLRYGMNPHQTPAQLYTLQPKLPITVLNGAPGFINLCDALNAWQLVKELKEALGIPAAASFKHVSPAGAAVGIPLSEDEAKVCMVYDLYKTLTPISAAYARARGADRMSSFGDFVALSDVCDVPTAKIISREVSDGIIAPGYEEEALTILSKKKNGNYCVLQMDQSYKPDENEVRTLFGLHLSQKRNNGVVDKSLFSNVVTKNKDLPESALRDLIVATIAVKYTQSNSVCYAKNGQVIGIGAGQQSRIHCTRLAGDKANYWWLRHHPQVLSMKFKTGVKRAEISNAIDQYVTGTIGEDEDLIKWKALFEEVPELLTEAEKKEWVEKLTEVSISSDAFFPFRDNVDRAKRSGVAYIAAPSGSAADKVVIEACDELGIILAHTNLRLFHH
test name: Inhibition of recombinant human AICARFTase using AICAR as substrate incubated at 37 degC for 30 mins measured after overnight incubation at 4 degC
endpoint label: Ki (nM)
Expressed in nM, but write only the number.

Query `Nc1nc2ccc(S(=O)(=O)Nc3ccc(C(=O)N[C@@H](CCC(=O)O)C(=O)O)cc3)cc2c(=O)[nH]1` yields Ki of 8

###

For each of the compounds below, state its IC50.
measured target: Thymidylate synthase/GAR transformylase/AICAR transformylase (Homo sapiens, UniProt P04818+P31939+P22102)
test name: Inhibition of TS/AICARFTase/GARFTase in human KB cells assessed as reduction in cell proliferation in folate free medium after 72 hrs in presence of leucovorin by MTT assay
Assay type: cell-based

Summary for this compound, `Nc1nc2[nH]c(CC(=O)NCC(=O)N[C@@H](CCC(=O)O)C(=O)O)cc2c(=O)[nH]1` : IC50 is 7.8 ×10⁻⁵ uM

Quick note, IC50 for `Nc1nc2[nH]c(CC(=O)Nc3ccc(C(=O)N[C@@H](CCC(=O)O)C(=O)O)cc3)cc2c(=O)[nH]1` landed at 7.5 ×10⁻³ microM

// sample `Nc1nc2[nH]c(CC(=O)NCCCCCC(=O)N[C@@H](CCC(=O)O)C(=O)O)cc2c(=O)[nH]1` , its IC50 was 1.4 ×10⁻⁴ microM

Memo: `Nc1nc2[nH]c(CC(=O)NCCCC(=O)N[C@@H](CCC(=O)O)C(=O)O)cc2c(=O)[nH]1` , reported IC50: 0.107 µM

Just so you know, measured IC50 for `Nc1nc2[nH]c(CC(=O)NCCCCC(=O)N[C@@H](CCC(=O)O)C(=O)O)cc2c(=O)[nH]1` came out at 0.043 µM

Lab book: IC50 of `Nc1nc2[nH]c(CC(=O)NCCC(=O)N[C@@H](CCC(=O)O)C(=O)O)cc2c(=O)[nH]1` noted as 0.092 µM

From: ChEMBL document CHEMBL4130394
